Test system: MDA-N
Assay: NCI tumour cell line growth inhibition, 48 h
Calls of active or inactive are those of the source. No stated cut-off is given here; in the data, active = GI50 up to about 1.1 µM and inactive = higher.
MEASURE: GI50

| COMPOUND | GI50 |
| --- | --- |
| CC1(C)N=C(/C(Cl)=[N+](/[O-])C(=O)c2ccc(F)cc2)C(C)(C)N1O | 16.4 µM (inactive) |

Q: Quick one: GI50 for Cc1cccc2c1Oc1cc(Cl)ccc1C2NC(=O)CCN1CCOCC1 (centres undefined) ?
A: > 100 µM (inactive)

Q: GI50 lookup needed for CC(=O)OC1O[C@@H](C(C)(C)O)CC[C@@H]1[C@H]1CC[C@@]2(C)C3=C(CC[C@]12C)[C@@]1(C)C[C@@H](OC(=O)CC(C)(O)CC(=O)O)[C@H](OC(C)=O)C(C)(C)C1CC3 (some centres undefined) , thanks.
A: 19.2 µM (inactive)

Q: Give the measured GI50 of `CC1=NC(=Cc2ccccc2O)C(=O)N1n1c(-c2ccccc2)nc2ccccc2c1=O` .
A: 41.3 µM (inactive)
